Tested on: KB
Assay: Cytotoxicity against human KB cells after 96 hrs by trypan blue exclusion assay
Format: functional, cell-based
metric: pIC50
Give bare numbers, as −log10 of the molar value.

**Q:** Give its pIC50 value. Item: COc1cc(OC)c(/C=C/S(=O)(=O)Cc2ccc(OC)c(NCC(=O)[O-])c2)c(OC)c1.[Na+] [RIGOSERTIB SODIUM]
**A:** 7.15

====

Test system: DLD-1
Experiment: Cytotoxicity against human DLD1 cells after 96 hrs by trypan blue exclusion assay
Format: functional, cell-based
Conditions: DLD-1, 96 h
metric: IC50 (nM)
Numbers only, in nM.

COc1cc(OC)c(/C=C/S(=O)(=O)Cc2ccc(OC)c(N)c2)c(OC)c1 :: 5

**Q:** What value of IC50 has been recorded for this entry: COc1cc(OC)c(/C=C/S(=O)(=O)Cc2ccc(OC)c(NCC(=O)[O-])c2)c(OC)c1.[Na+] [RIGOSERTIB SODIUM]
**A:** 150

====

Test: Cytotoxicity against human 451LU cells after 96 hrs by trypan blue exclusion assay
Assay type: functional, cell-based
metric: pIC50
Numbers only, as −log10 of the molar value.

**Q:** What value of measured pIC50 is listed for COc1cc(OC)c(/C=C/S(=O)(=O)Cc2ccc(OC)c(NCC(=O)[O-])c2)c(OC)c1.[Na+] [RIGOSERTIB SODIUM] ?
**A:** 7.60

====

System: LP-1
Assay: Cytotoxicity against human LP-1 cells after 96 hrs by trypan blue exclusion assay
Type: functional, cell-based
Conditions: LP-1, 96 h
Consider the following compounds; for each one, report its IC50.
Numbers only, in nM.

COc1cc(OC)c(/C=C/S(=O)(=O)Cc2ccc(OC)c(NCC(=O)[O-])c2)c(OC)c1.[Na+] [RIGOSERTIB SODIUM] :: 30

**Q:** Sample COc1cc(OC)c(/C=C/S(=O)(=O)Cc2ccc(OC)c(N)c2)c(OC)c1 — what was its IC50?
**A:** 3

====

Assay: Cytotoxicity against human WM1341D cells after 96 hrs by trypan blue exclusion assay
Format: functional, cell-based
metric: pIC50
One number for each entry, as −log10 of the molar value.

**Q:** // pIC50 lookup, key: COc1cc(OC)c(/C=C/S(=O)(=O)Cc2ccc(OC)c(NCC(=O)[O-])c2)c(OC)c1.[Na+] [RIGOSERTIB SODIUM]
**A:** 7.00

====

Assay: Cytotoxicity against human WM278 cells after 96 hrs by trypan blue exclusion assay
Assay type: functional, cell-based
Settings: WM278, 96 h
metric: IC50 (nM)
Give bare numbers, in nM.

**Q:** Recorded IC50 of COc1cc(OC)c(/C=C/S(=O)(=O)Cc2ccc(OC)c(NCC(=O)[O-])c2)c(OC)c1.[Na+] [RIGOSERTIB SODIUM] , please.
**A:** 150

====

Assay: Aqueous solubility of the compound
Format: physicochemical
Conditions: water
metric: solubility
Kindly report the value followed by its unit.

**Q:** Dear colleague, I am looking for the recorded solubility of the following compound: COc1cc(OC)c(/C=C/S(=O)(=O)Cc2ccc(OC)c(NCC(=O)[O-])c2)c(OC)c1.[Na+] [RIGOSERTIB SODIUM]
**A:** 28 mg/mL

====

Experiment: Cytotoxicity against human PS41 cells after 96 hrs by trypan blue exclusion assay
Format: cell-based
Conditions: PS41, 96 h
metric: IC50

**Q:** Name the recorded IC50 for COc1cc(OC)c(/C=C/S(=O)(=O)Cc2ccc(OC)c(NCC(=O)[O-])c2)c(OC)c1.[Na+] [RIGOSERTIB SODIUM] .
**A:** > 100 µM

Values were extracted from ChEMBL document CHEMBL2010670.
